Attribution: paper PMC12064818

Exercise: for every item that follows, state its recorded IC50.
# TARGET: FLuc-C-HiBiT (firefly luciferase) (Photinus pyralis, UniProt P08659, form not given/L550V)
# Sequence (P08659 2-550 L550V, form open): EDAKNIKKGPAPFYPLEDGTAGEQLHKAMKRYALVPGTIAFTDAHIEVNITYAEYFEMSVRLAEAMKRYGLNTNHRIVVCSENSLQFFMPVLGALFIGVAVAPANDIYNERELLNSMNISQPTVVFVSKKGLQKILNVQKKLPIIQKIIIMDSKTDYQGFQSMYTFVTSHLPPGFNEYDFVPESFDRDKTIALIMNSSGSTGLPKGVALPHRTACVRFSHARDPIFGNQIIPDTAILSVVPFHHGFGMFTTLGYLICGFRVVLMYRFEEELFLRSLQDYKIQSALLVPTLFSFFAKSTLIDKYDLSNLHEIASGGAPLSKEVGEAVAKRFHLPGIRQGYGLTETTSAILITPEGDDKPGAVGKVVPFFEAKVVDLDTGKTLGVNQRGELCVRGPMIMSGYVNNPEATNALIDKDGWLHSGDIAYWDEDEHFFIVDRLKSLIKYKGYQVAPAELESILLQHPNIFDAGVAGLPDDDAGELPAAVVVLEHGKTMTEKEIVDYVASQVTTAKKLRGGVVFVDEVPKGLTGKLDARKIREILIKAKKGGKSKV
# PROCEDURE DETAILS: Firefly luciferase (FLuc) enzymatic luminescence assay, FLuc-C-HiBiT
# STATED CONDITIONS: FLuc-C-HiBiT qHTS, FLuc enzymatic assay; read-out: IC50, FLuc E
Unit nM implied. Number only.

Tell me IC50 reported for "CSc1ccc(/C=C/c2nc3ccccc3n2[S+](=O)([O-])c2ccc(Br)cc2)cc1"
700

Hello, please tell me recorded IC50 for this one: "CSc1ccc(/C=C/c2nc3ccccc3n2[S+](=O)([O-])c2cccc(Cl)c2)cc1"
556

Query IC50 for "CCOc1ccc(/C=C/c2nc3ccccc3n2[S+](=O)([O-])c2cccc(Cl)c2)cc1"
394

* * *

# TARGET: FLuc-C-HiBiT (firefly luciferase) (Photinus pyralis, UniProt P08659, form not given/L550V)
# PROCEDURE DETAILS: SDR assay, FLuc-C-HiBiT
# STATED CONDITIONS: + ATP; SDR max. response; clade S
Please go through the items and note down their % Activity (max response, + ATP).
Dear colleague, please return just the value in %, with no unit written.

Answer with the recorded % Activity (max response, + ATP) for the molecule listed here: O=C(NCc1ccc(F)cc1Cl)C1CCN(C(=O)c2ncn3c2COC(c2ccccc2)C3)CC1 (stereo not drawn)
205.97

Quote % Activity (max response, + ATP) reported for Cc1cccc(CNC(=O)C2CCN(C(=O)c3ncn4c3COC(c3ccc(F)cc3)C4)CC2)c1 (stereo not drawn) please.
48.27

Let me know recorded % Activity (max response, + ATP) for COc1ccc(C2Cn3cnc(C(=O)N4CCC(C(=O)NCC(C)C)CC4)c3CO2)cc1 (stereo not drawn) , thanks.
14.32

Please report the measured % Activity (max response, + ATP) for Cc1ccc(C2Cn3cnc(C(=O)N4CCC(C(=O)NCCc5ccccc5)CC4)c3CO2)cc1 (stereo not drawn)
46.98

Report % Activity (max response, + ATP) for COc1ccc(C2Cn3cnc(C(=O)N4CCC(C(=O)NC5CCC(C)CC5)CC4)c3CO2)cc1 (stereo not drawn)
14.50

Please supply the value of reported % Activity (max response, + ATP) for the item Cc1ccc(C2Cn3cnc(C(=O)N4CCC(C(=O)NCc5cccc(F)c5)CC4)c3CO2)cc1 (stereo not drawn)
60.19

Name the recorded % Activity (max response, + ATP) of the molecule listed here: O=C(NCc1ccc(Cl)cc1)C1CCN(C(=O)c2ncn3c2COC(c2ccccc2)C3)CC1 (stereo not drawn)
324.91

Please look at this molecule and report its % Activity (max response, + ATP): CC(NC(=O)C1CCN(C(=O)c2ncn3c2COC(c2ccccc2)C3)CC1)c1ccc(F)cc1 (stereo not drawn)
272.56

Identify the reported % Activity (max response, + ATP) for the following entry. CC(C)CNC(=O)C1CCN(C(=O)c2ncn3c2COC(c2ccc(F)cc2)C3)CC1 (stereo not drawn)
48.51

State its % Activity (max response, + ATP): COc1cccc(CNC(=O)C2CCN(C(=O)c3ncn4c3COC(c3ccc(C)cc3)C4)CC2)c1 (stereo not drawn)
57.89

Provide only the value of recorded % Activity (max response, + ATP) for CC1CCC(NC(=O)C2CCN(C(=O)c3ncn4c3COC(c3ccc(F)cc3)C4)CC2)CC1 (stereo not drawn)
39.00

Please look at this molecule and report its % Activity (max response, + ATP): O=C(NCc1ccc(F)cc1)C1CCN(C(=O)c2ncn3c2COC(c2ccccc2)C3)CC1 (stereo not drawn)
341.35

Using known records, supply % Activity (max response, + ATP) for O=C(NCCCc1ccccc1)C1CCN(C(=O)c2ncn3c2COC(c2ccccc2)C3)CC1 (stereo not drawn)
265.99

Read the entry Cc1ccc(C2Cn3cnc(C(=O)N4CCC(C(=O)NCc5cccc(Cl)c5)CC4)c3CO2)cc1 (stereo not drawn) and write its reported % Activity (max response, + ATP).
61.41

Determine from records and report % Activity (max response, + ATP) for O=C(NCc1ccccc1F)C1CCN(C(=O)c2ncn3c2COC(c2ccc(Cl)cc2)C3)CC1 (stereo not drawn)
18.50
